System: Escherichia coli TOP10;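 further: peptides expressed intracellularly from a pBAD plasmid library in pooled LB shake-flask culture, induced with 0.3% L-arabinose, DNA abundance read by NGS, three biological replicates, DESeq2 with apeglm shrinkage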
method-summary: shrunken log2 fold change of peptide-encoding DNA abundance (4.5 h post-induction vs induction); higher = less antimicrobial activity (less host growth inhibition)
condition-details: time post-induction: 4.5 h; library: site-saturation at positions 5, 18, 19, 20
property: shrunken log2 fold change
// response body must contain only the number

Task: Fill in: shrunken log2 fold change of "RRIRLRPPRLPRPRPRPPDVPRP" is ___
Result: -0.0115

Task: Fill in: shrunken log2 fold change of "RRIRFRPPRLPRPRPRPSEMPRP" is ___
Result: -0.148

Task: Fill in: shrunken log2 fold change of "RRIRVRPPRLPRPRPRPDYWPRP" is ___
Result: -0.449

Task: Fill in: shrunken log2 fold change of "RRIRERPPRLPRPRPRPCPVPRP" is ___
Result: 0.0397

Task: Fill in: shrunken log2 fold change of "RRIRERPPRLPRPRPRPLSFPRP" is ___
Result: 0.329

***
Task: Fill in: shrunken log2 fold change of "RRIRYRPPRLPRPRPRPMDDPRP" is ___
Result: -0.0837

Task: Fill in: shrunken log2 fold change of "RRIRARPPRLPRPRPRPCTAPRP" is ___
Result: -0.147
